The reported measurements were obtained from paper PMC9537541.

# SYSTEM UNDER TEST: hCA IX (Homo sapiens, UniProt Q16790)
# Construct: made in house
# EXPERIMENTAL PROTOCOL: stopped-flow CO2 hydrase assay, hCA IX
# Assay type: biochemical
# STUDY CONDITIONS: hCA IX over off-target hCA II
# Procedure: Target compounds of series (A) and (B) were screened as inhibitors concerning the physiologically relevant hCAs; cytosolic isoforms (hCA I and II) in addition to the transmembrane tumor related isoforms (hCA IX and XII) via a stopped-flow assay of carbonic anhydrase catalyzed CO2 hydration. […] Four CA isoforms inhibition activity was measured by assaying CA catalyzed CO2 hydration via an applied photophysics stopped-flow instrument. […]
RECORDED ENDPOINT: Selectivity index (SI) II/IX

Recorded Selectivity index (SI) II/IX, per entry:
| COMPOUND | Selectivity index (SI) II/IX |
| --- | --- |
| N#C/C(=C\c1cccc(Cl)c1)c1nc(N)nc(Nc2ccc(S(N)(=O)=O)cc2)n1 [Compound 12h] | 6.1 |
| N#C/C(=C\c1cccc(Br)c1)c1nc(N)nc(Nc2ccc(S(N)(=O)=O)cc2)n1 [Compound 12b] | 2 |
| CC1(C)N=C(N)N=C(Nc2ccc(S(N)(=O)=O)cc2)N1 [Compound 7a] | 1.3 |
| N#C/C(=C\c1ccc(F)cc1)c1nc(N)nc(Nc2ccc(S(N)(=O)=O)cc2)n1 [Compound 12f.] | 2.5 |
| COc1ccc(/C=C(\C#N)c2nc(N)nc(Nc3ccc(S(N)(=O)=O)cc3)n2)cc1 [Compound 12c] | 1.4 |
| N#CCc1nc(N)nc(Nc2ccc(S(N)(=O)=O)cc2)n1 [Compound 10] | 0.02 |
| NC1=NC2(CCCC2)NC(Nc2ccc(S(N)(=O)=O)cc2)=N1 [Compound 8a] | 2.5 |

(A) Cc1ccc(/C=C(\C#N)c2nc(N)nc(Nc3ccc(S(N)(=O)=O)cc3)n2)cc1 [Compound 12g]
(B) CC1(C)N=C(N)N=C(N)N1c1ccc(S(N)(=O)=O)cc1 [Compound 5a]
## Task Select the item whose Selectivity index (SI) II/IX value is smaller, choosing between A and B . Pick one; state its label.
## Result A

---

Please consider the recorded Ki for hCA II (Homo sapiens, UniProt P00918) in what follows.
RECORDED ENDPOINT: Ki (nM)

| COMPOUND | ENDPOINT UNIT | OBSERVED VALUE |
| --- | --- | --- |
| COc1ccc(/C=C(\C#N)c2nc(N)nc(Nc3ccc(S(N)(=O)=O)cc3)n2)cc1 [Compound 12c] | nM | 1940 |
| NC1=NC2(CCCC2)N(c2ccc(S(N)(=O)=O)cc2)C(N)=N1 [Compound 6a] | nM | 832 |
| N#C/C(=C\c1ccc(F)cc1)c1nc(N)nc(Nc2ccc(S(N)(=O)=O)cc2)n1 [Compound 12f.] | nM | 493 |
| N#C/C(=C\c1cccc(F)c1)c1nc(N)nc(Nc2ccc(S(N)(=O)=O)cc2)n1 [Compound 12i] | nM | 253 |
| Cc1ccc(/C=C(\C#N)c2nc(N)nc(Nc3ccc(S(N)(=O)=O)cc3)n2)cc1 [Compound 12g] | nM | 697 |
| CN(C)c1ccc(/C=C(\C#N)c2nc(N)nc(Nc3ccc(S(N)(=O)=O)cc3)n2)cc1 [Compound 12d] | nM | 364 |

(I) CC1(C)N=C(N)N=C(N)N1c1ccc(S(N)(=O)=O)cc1 [Compound 5a]
(II) N#C/C(=C\c1cccc(Cl)c1)c1nc(N)nc(Nc2ccc(S(N)(=O)=O)cc2)n1 [Compound 12h]
## Task Given I and II , report the one with the higher recorded Ki. Pick one; state its label.
## Result I

(A) CC1(C)N=C(N)N=C(Nc2ccc(S(N)(=O)=O)cc2)N1 [Compound 7a]
(B) N#C/C(=C\c1ccc2c(c1)OCO2)c1nc(N)nc(Nc2ccc(S(N)(=O)=O)cc2)n1 [Compound 12e]
## Task Select the item whose Ki value is smaller, choosing between A and B . Pick one; state its label.
## Result A

(1) N#C/C(=C\c1ccccc1)c1nc(N)nc(Nc2ccc(S(N)(=O)=O)cc2)n1 [Compound 12a]
(2) N#C/C(=C\c1cccc(Br)c1)c1nc(N)nc(Nc2ccc(S(N)(=O)=O)cc2)n1 [Compound 12b]
## Task Select the item whose Ki value is smaller, choosing between 1 and 2 . Pick one; state its label.
## Result 1
